// provenance: patent US7087642B2

Recorded Ki values for a group of compounds are listed next.
# target-or-system: UniProt P12268
# assay: biochemical
# condition-set: read-out: Ki

compound="CCCN(CCC(OC(=O)NCc1cccc(NC(=O)Nc2ccc(-c3cnco3)c(OC)c2)c1)c1ccccc1)CC1CC1 (stereo not shown)" target_or_system="UniProt P12268" experimental_result="> 50 nM"
compound=COc1cc(NC(=O)Nc2cccc(CNC(=O)OC[C@@H](N)CC#N)c2)ccc1-c1cnco1 target_or_system="UniProt P12268" experimental_result="< 10 nM"
compound=COc1cc(NC(=O)Nc2cccc(CNC(=O)O[C@@H](CO)CSC)c2)ccc1-c1cnco1 target_or_system="UniProt P12268" experimental_result="< 10 nM"
compound="CCC(CCCCO)OC(=O)NCc1cccc(NC(=O)Nc2ccc(-c3cnco3)c(OC)c2)c1 (stereo not shown)" target_or_system="UniProt P12268" experimental_result="< 10 nM"
compound=CCCN(CC)C[C@@H](OC(=O)NCc1cccc(NC(=O)Nc2ccc(-c3cnco3)c(OC)c2)c1)c1ccccc1 target_or_system="UniProt P12268" experimental_result="> 50 nM"

Problem: Please look at this compound and report its Ki: "COc1cc(NC(=O)Nc2cccc(CNC(=O)OCCOCCC#N)c2)ccc1-c1cnco1"
Result: < 10 nM

Problem: Please look at this compound and report its Ki: "COc1cc(NC(=O)Nc2cccc(CNC(=O)OC(CC#N)CC#N)c2)ccc1-c1cnco1"
Result: < 10 nM

---

Recorded pKi values for a group of molecules are listed next.
# target-or-system: IMPDH human type II (Homo sapiens, UniProt P12268)
# assay: biochemical
# condition-set: read-out: Ki
pKi: −log10 of the molar value.

Problem: Please look at this molecule and report its pKi: "COc1cc(NC(=O)Nc2cccc(CNC(=O)O[C@@H]3CCN(S(=O)(=O)N(C)C)C3)c2)ccc1-c1cnco1"
Result: > 8.00

Problem: Please look at this molecule and report its pKi: CCN(CC)C[C@@H](OC(=O)NC(C)c1cccc(NC(=O)Nc2ccc(-c3cnco3)c(OC)c2)c1)c1ccccc1 (some centres unmarked) [Compound 167]
Result: < 7.30

---

Recorded Ki values for a group of compounds are listed next.
# target-or-system: IMPDH human type II (Homo sapiens, UniProt P12268)
# assay: biochemical
# condition-set: read-out: Ki

Some compounds with recorded Ki:
compound=COc1cc(NC(=O)Nc2cccc(CNC(=O)O[C@@H](CC#N)CN(C)C)c2)ccc1-c1cnco1 experimental_result="< 10 nM"
compound=COc1cc(NC(=O)Nc2cccc(CNC(=O)O[C@@H]3C=C[C@H](OC(C)=O)C3)c2)ccc1-c1cnco1 experimental_result="< 10 nM"

Problem: GET Ki | system: IMPDH human type II (Homo sapiens, UniProt P12268) | item: COc1cc(NC(=O)Nc2cccc(CNC(=O)OC3COCC3OCC(=O)OC(C)(C)C)c2)ccc1-c1cnco1 (stereo not shown) [Compound 70]
Result: < 10 nM

Problem: GET Ki | system: IMPDH human type II (Homo sapiens, UniProt P12268) | item: "CC[C@H](CCC#N)OC(=O)N[C@@H](C)c1cccc(NC(=O)Nc2ccc(C#N)c(OC)c2)c1"
Result: 10 to 50 nM

Problem: GET Ki | system: IMPDH human type II (Homo sapiens, UniProt P12268) | item: "CC[C@H](CCC#N)OC(=O)NCc1cccc(NC(=O)Nc2ccc(-c3cnco3)c(OC)c2)c1"
Result: 10 to 50 nM

Problem: GET Ki | system: IMPDH human type II (Homo sapiens, UniProt P12268) | item: "CC[C@H](CO)OC(=O)N[C@H](C)c1cccc(NC(=O)Nc2ccc(C#N)c(OC)c2)c1"
Result: > 50 nM

Problem: GET Ki | system: IMPDH human type II (Homo sapiens, UniProt P12268) | item: "COc1cc(NC(=O)Nc2cccc(CNC(=O)OCCCOP(=O)(O)O)c2)ccc1-c1cnco1"
Result: 10 to 50 nM
